- protocolText: activators reversing PD-1 mediated T-cell inhibition, primary screen, luminescence, primary human CD4 T cells, PD-L1 beads (AID 2316);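 further: 0% = median vehicle wells and 100% = positive control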
- testParameters: CellTiter-Glo 96 h, stronger effect = higher value
Out of some 29,000 compounds screened, fewer than 10 were called active. Only a sample is shown.
The following compounds are shown together with reported activation values.
measurementName: activation (%)

[[record]]
compound = "COc1cc(OC)cc(C(=O)N2CCN=C2c2ccccc2)c1"
observedmeasurement = 0.604

[[record]]
compound = "CC1=Nn2c(Cn3nnc4ccccc43)nnc2SC1"
observedmeasurement = 0.665

[[record]]
compound = "COc1ccc(CN(C)C[C@H]2Oc3c(NS(=O)(=O)c4ccc(C)cc4)cccc3C(=O)N([C@@H](C)CO)C[C@@H]2C)cc1"
observedmeasurement = -1.26

[[record]]
compound = "COc1ccc(NC(=O)CSc2nc(-c3cccs3)cc(-c3ccsc3)c2C#N)cc1OC"
observedmeasurement = -6.31

[[record]]
compound = "O=C(O)C1CC=CCC1C(=O)Nc1ccc(C(=O)N2CCCCC2)c(Cl)c1 (centres undefined)"
observedmeasurement = 2.23

[[record]]
compound = "COc1ccc(NC(=O)c2ccc(OCC(=O)Nc3ccccc3F)cc2)cc1Cl"
observedmeasurement = 0.553

[[record]]
compound = "C[C@@H]1CCCCO[C@@H](CN(C)S(=O)(=O)c2cn(C)cn2)[C@@H](C)CN([C@H](C)CO)C(=O)c2cc(NC(=O)c3ccncc3)ccc2O1"
observedmeasurement = 3.7

[[record]]
compound = "O=C1Cc2ccc(F)cc2CC1C1=Cc2ccc(F)cc2CC1 (centres undefined)"
observedmeasurement = -8.11

[[record]]
compound = "Cc1noc(C)c1NC(=O)Nc1cccc2c1O[C@@H](CN(C)C(=O)Nc1ccc(C(F)(F)F)cc1)[C@@H](C)CN([C@@H](C)CO)C2=O"
observedmeasurement = -0.0327

